System: CAL-51 cells
Assay info: CAL-51 Cell Proliferation Assay
Assay type: cell-based
Experimental context: minimal percent of DMSO control observed in the concentrations tested (Ymin-obs), 120 hours
Excerpt: CAL-51 cells were obtained from Bristol Myers Squibb internal cell banks (originally sourced from DSMZ-German Collection of Microorganisms and Cell Cultures GmbH, Germany) and cultured in RPMI complete media (RPMI-1640, 10% Fetal Bovine serum, 1× Antibiotic-Antimycotic, and 1× Non-Essential Amino Acids). […] Luminescence data was processed per plate by subtracting reagent-only “blank” well luminescence from all measured values and calculating a percent of DMSO control value for each treatment well. […]
Measured property: CAL-51 Prolif Ymin
# answer = number (no unit)

Ask: Quote CAL-51 Prolif Ymin reported for O=C1CC[C@H](N2Cc3cc(Cn4ncc5c(-c6ncc(C(F)(F)F)cc6Cl)cc(N6CCC(O)C6)nc54)ccc3C2=O)C(=O)N1 (stereo in doubt) please.
Result: 53.56

Ask: Provide CAL-51 Prolif Ymin value for the following compound: O=C1CCC(N2Cc3cc(Cn4ncc5c(-c6ncc(F)cc6Cl)cc(N6CC[C@H](O)C6)nc54)ccc3C2=O)C(=O)N1 (stereo partly shown)
Result: 29.27

Ask: Input O=C1CC[C@@H](N2Cc3c(ccc(Cn4ncc5c(-c6ncc(F)cc6Cl)cc(N6CC(F)C6)nc54)c3F)C2=O)C(=O)N1 (single isomer, unassigned) , output reported CAL-51 Prolif Ymin.
Result: 35.33

Ask: Give the reported CAL-51 Prolif Ymin for this compound. `CN(c1cc(-c2ncc(C(F)(F)F)cc2Cl)c2cnn(Cc3ccc4c(c3)CN([C@H]3CCC(=O)NC3=O)C4=O)c2n1)C1COC1`
Result: 36.78

Ask: Dear colleague, please send me the reported CAL-51 Prolif Ymin for O=C1CCC(N2Cc3cc(Cn4ncc5c(-c6ncc(F)cc6Cl)c(F)c(N6CC(F)C6)nc54)ccc3C2=O)C(=O)N1 (stereo not shown) when you can.
Result: 34.80

Ask: Return the recorded CAL-51 Prolif Ymin value; entry: `O=C1CC[C@H](N2Cc3cc(Cn4ncc5c(-c6ncc(C(F)(F)F)cc6Cl)cc(N6CC(F)C6)nc54)cnc3C2=O)C(=O)N1`
Result: 28.95

Ask: Report CAL-51 Prolif Ymin, nothing else, for this compound: O=C1CCC(N2Cc3cc(Cn4ncc5c(-c6ncc(C(F)(F)F)cc6Cl)c(F)c(N6CC(F)C6)nc54)ccc3C2=O)C(=O)N1 (stereo not shown)
Result: 23.98

Ask: Given CN(c1cc(-c2ncc(C(F)(F)F)cc2Cl)c2cnn(Cc3ccc4c(c3)CN([C@H]3CCC(=O)NC3=O)C4=O)c2n1)C1CC(O)C1 (stereo partly shown) , respond with its CAL-51 Prolif Ymin.
Result: 32.02

Ask: // fetch CAL-51 Prolif Ymin given entry O=C1CCC(N2Cc3cc(Cn4ncc5c(-c6ncccc6Cl)c(F)c(N6CC(F)C6)nc54)ccc3C2=O)C(=O)N1 (stereo not shown)
Result: 24.38

Ask: Check the records and state CAL-51 Prolif Ymin for O=C1CCC(N2Cc3cc(Cn4ncc5c(-c6ncc(F)cc6F)cc(N6CC(F)C6)nc54)ccc3C2=O)C(=O)N1 (stereo not shown)
Result: 36.07

Ask: Read off the recorded CAL-51 Prolif Ymin for CCOc1cnc(-c2cc(N3CC(F)C3)nc3c2cnn3Cc2ccc3c(c2)CN(C2CCC(=O)NC2=O)C3=O)c(CC)c1 (stereo not shown)
Result: 34.11

Ask: Report measured CAL-51 Prolif Ymin; entry is O=C1CCC(N2Cc3cc(Cn4ncc5c(-c6ncc(Cl)cc6F)cc(N6CC(F)C6)nc54)ccc3C2=O)C(=O)N1 (stereo not shown)
Result: 37.96

Ask: Return CAL-51 Prolif Ymin for the following compound: `N#Cc1ccc(-c2c(F)c(N3CC(F)C3)nc3c2cnn3Cc2ccc3c(c2)CN([C@H]2CCC(=O)NC2=O)C3=O)nc1`
Result: 52.27
